- experimental.protocol: Inhibition of alpha-glucosidase in rat small intestinal mucosa assessed as reduction in glucose production using p-nitrophenyl alpha-D-glucopyranoside as substrate measured after 40 mins by glucose oxidase assay
IC50 values, listed per item

Exercise: Value lookup for IC50; key = CC(C)=CCC/C(C)=C/CCC1=C[C@H](c2cc(O)ccc2O)OC1=O
Solution: 0.4 µM

----------
IC50 values, listed per item
- system.name: UniProtKB P23739
- Sequence (P23739 1-1013 limits assumed): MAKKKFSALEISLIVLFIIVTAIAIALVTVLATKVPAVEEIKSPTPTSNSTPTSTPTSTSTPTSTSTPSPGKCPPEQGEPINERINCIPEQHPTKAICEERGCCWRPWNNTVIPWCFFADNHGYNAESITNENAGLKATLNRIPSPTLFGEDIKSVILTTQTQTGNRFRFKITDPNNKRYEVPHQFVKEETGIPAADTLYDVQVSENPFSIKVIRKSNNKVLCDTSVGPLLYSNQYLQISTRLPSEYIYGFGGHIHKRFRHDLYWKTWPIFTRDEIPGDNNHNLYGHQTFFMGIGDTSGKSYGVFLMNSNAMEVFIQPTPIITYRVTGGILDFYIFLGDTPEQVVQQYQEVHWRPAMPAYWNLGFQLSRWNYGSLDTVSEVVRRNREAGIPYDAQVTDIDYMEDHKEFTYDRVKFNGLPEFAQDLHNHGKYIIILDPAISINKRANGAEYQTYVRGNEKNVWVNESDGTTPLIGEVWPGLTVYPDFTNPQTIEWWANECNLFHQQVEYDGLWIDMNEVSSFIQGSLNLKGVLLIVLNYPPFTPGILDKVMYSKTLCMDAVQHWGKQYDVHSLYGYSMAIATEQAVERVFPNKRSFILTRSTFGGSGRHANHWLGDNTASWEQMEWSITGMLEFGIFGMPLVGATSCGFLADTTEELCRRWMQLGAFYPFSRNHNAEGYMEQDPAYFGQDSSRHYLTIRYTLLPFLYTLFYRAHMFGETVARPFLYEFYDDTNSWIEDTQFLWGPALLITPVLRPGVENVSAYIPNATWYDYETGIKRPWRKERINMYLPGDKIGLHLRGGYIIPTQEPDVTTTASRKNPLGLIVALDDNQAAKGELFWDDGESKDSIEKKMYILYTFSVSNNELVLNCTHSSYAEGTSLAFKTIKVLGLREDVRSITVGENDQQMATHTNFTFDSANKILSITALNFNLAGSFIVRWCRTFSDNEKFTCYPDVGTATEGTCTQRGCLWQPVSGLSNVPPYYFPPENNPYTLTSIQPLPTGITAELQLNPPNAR
- Sequence (P23739 1014-1841 limits assumed): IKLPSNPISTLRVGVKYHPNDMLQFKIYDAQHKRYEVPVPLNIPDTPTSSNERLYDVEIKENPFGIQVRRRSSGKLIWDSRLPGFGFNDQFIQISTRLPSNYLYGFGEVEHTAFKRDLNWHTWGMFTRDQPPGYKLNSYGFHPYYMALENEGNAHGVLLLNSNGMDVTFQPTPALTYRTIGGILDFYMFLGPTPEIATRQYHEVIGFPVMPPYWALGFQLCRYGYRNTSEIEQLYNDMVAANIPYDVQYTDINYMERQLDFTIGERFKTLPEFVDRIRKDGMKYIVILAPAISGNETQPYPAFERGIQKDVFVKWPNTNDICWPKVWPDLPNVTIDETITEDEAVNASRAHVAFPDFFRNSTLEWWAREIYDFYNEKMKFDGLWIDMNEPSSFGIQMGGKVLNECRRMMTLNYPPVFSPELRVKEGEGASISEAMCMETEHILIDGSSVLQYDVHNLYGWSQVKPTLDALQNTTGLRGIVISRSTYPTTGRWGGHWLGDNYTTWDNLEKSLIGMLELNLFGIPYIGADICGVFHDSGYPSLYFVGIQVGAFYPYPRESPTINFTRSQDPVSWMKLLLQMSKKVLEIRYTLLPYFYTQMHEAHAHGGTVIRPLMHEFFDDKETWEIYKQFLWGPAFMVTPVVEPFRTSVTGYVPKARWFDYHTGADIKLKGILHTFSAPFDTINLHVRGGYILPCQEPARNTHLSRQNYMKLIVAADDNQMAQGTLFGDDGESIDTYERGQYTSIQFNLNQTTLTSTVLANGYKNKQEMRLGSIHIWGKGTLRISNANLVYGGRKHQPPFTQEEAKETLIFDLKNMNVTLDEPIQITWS
- experimental.protocol: Inhibition of sucrase in rat small intestinal mucosa assessed as reduction in glucose production using sucrose as substrate measured after 40 mins by glucose oxidase assay

[
  {
    "molecule": "COC1(c2cc(O)ccc2O)C=C(CC/C=C(\\C)CC/C=C(\\C)C=O)C(=O)O1 (stereo not drawn)",
    "observed": "> 100 µM"
  },
  {
    "molecule": "CC(C)=CCC/C(C)=C/CC/C(=C/Cc1cc(O)ccc1O)C(=O)O",
    "observed": "35.5 µM"
  },
  {
    "molecule": "C/C1=C/CC/C(=C/Cc2cc(O)ccc2O)C(=O)OC(C)(C)[C@H](O)CC1",
    "observed": "> 100 µM"
  },
  {
    "molecule": "CC(C)=CCC/C(C)=C/CC/C(=C/C(=O)c1cc(O)ccc1O)C(=O)O",
    "observed": "> 100 µM"
  },
  {
    "molecule": "C/C(C=O)=C\\CC/C(C)=C/CCC1=C[C@H](c2cc(O)ccc2O)OC1=O",
    "observed": "> 100 µM"
  }
]

Exercise: Value lookup for IC50; key = CC(C)=CCC/C(C)=C/CCC1=C[C@H](c2cc(O)ccc2O)OC1=O
Solution: 67.6 µM

Exercise: Value lookup for IC50; key = CC(C)=CCC/C(C)=C/CCC(CC(=O)c1cc(O)ccc1O)C(=O)O (stereo not drawn)
Solution: > 100 µM

Exercise: Value lookup for IC50; key = CC(C)=CCC/C(C)=C/CC/C(=C\Cc1cc(O)ccc1O)C(=O)O
Solution: > 100 µM
